assay-system: Bcl-xL, Q07817
Sequence (Q07817 1-209): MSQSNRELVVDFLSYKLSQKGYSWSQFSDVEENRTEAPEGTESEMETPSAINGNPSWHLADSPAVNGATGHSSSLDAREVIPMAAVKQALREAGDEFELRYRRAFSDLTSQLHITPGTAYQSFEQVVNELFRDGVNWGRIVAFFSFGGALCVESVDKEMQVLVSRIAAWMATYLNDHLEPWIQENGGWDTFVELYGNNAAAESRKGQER
protocol: peptide SPOT array, c-Myc-tagged receptor at 1 uM or 100 nM, anti-c-Myc-Cy3
recorded-endpoint: SPOT signal as a fraction of Bim BH3's signal on the same receptor and array

Some solved entries appear below for comparison.
| binder | reported-value |
| --- | --- |
| DIFMNNVIVRLSQISEDVIRLFKKSK [SRGAP3] | 0.18 |
| AEVMRQRGINMRYLLKVLELVLRSPA [KIAA0664] | 0.74 |
| IQQDLGCGASLGVILDNLLVTGGQGC [SCAP] | 0.01 |

[A] GKPETCTGQDDADLGDRLRDWFQLLH [SPOCK2]
[B] RMNLQTMVDTLQEAAQEADAIQEEMN [IFFO2]
Lab notebook, comparison: A versus B , higher SPOT signal as a fraction of Bim BH3's signal on the same receptor and array goes to which? Give the label of your selection. B

[I] LREVRESIRFLRQVLRDWVQRRREAL [CYP46A1]
[II] KNIAGALAFWDANASELLNFIKQDRD [MLLT4]
Lab notebook, comparison: I versus II , higher SPOT signal as a fraction of Bim BH3's signal on the same receptor and array goes to which? Give the label of your selection. I
(I: 0.44, II: 0.02)

[P] REHIKLLIQKLTDVAEECQNNQLKKL [PLCB1]
[Q] IKKSVTKGEMLKIVLKRFREHFPEIL [MAGEB2]
Lab notebook, comparison: P versus Q , higher SPOT signal as a fraction of Bim BH3's signal on the same receptor and array goes to which? Give the label of your selection. Q
(Q: 0.2, P: 0.05)

[P] MSLFLRVVFSDTMFGDLFEEEYSTVS [USP40]
[Q] VAGYRESAAFLLRSADELENLILQQN [NOL4]
[R] DSLAKFAGRKDKDCGEDLLVEISEVL [PCM1]
Put the binders in ascending order of SPOT signal as a fraction of Bim BH3's signal on the same receptor and array. Rank the items, then write their labels in that order. R, Q, P
